system name: recombinant human PI3Kδ (6-His(p110-p85α)) (Homo sapiens (Human), UniProt O00329)
Sequence (O00329 whole entry): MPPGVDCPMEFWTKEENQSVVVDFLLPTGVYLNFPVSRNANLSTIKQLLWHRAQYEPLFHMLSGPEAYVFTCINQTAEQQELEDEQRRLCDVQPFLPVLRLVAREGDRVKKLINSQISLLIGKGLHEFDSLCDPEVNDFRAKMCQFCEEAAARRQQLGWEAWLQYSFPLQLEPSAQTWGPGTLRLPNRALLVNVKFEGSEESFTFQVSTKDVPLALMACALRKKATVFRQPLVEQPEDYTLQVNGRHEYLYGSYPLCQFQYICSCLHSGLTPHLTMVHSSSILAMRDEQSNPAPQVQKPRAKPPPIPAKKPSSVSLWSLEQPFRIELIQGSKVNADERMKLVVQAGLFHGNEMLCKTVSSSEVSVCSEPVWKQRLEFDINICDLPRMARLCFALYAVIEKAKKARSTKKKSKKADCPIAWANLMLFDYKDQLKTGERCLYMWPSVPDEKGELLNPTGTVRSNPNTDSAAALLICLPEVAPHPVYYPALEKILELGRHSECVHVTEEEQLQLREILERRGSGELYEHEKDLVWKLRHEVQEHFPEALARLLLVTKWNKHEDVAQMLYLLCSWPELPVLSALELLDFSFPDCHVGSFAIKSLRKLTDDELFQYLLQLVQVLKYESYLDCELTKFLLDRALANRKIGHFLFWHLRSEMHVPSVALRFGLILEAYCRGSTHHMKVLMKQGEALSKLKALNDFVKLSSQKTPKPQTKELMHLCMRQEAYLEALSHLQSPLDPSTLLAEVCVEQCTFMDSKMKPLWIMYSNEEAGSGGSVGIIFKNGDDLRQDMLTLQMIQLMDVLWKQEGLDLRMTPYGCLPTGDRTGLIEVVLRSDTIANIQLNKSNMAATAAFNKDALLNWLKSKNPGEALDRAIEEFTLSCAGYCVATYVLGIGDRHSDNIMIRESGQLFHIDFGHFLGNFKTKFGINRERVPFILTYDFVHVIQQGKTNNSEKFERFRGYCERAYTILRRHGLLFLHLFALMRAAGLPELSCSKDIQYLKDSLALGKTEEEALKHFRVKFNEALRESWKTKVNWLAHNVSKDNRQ
Sequence (P27986 whole entry partner): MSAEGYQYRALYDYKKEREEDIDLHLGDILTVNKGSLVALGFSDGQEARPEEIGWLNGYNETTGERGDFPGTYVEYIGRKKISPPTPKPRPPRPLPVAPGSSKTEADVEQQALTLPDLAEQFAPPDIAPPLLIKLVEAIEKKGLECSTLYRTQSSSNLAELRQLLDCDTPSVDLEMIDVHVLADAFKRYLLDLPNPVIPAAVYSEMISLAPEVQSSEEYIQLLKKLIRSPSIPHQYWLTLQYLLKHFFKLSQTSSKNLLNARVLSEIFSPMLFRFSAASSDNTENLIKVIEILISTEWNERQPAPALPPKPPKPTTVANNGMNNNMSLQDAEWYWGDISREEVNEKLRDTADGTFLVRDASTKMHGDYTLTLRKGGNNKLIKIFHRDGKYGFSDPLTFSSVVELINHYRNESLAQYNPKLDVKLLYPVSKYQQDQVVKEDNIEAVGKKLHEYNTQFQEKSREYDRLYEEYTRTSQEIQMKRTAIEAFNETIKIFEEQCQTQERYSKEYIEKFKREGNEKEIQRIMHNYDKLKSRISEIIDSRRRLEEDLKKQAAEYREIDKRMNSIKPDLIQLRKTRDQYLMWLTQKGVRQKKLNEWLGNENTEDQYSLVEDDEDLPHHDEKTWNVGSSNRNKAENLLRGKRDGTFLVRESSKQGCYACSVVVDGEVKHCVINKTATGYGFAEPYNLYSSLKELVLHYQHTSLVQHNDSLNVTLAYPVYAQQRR
measurement protocol: Enzymatic activity assay for recombinant human PI3Kδ (ADP-Glo)
measurement parameters: 0.6 nM PI3Kδ, 20 μM ATP, 80 μM DiC8-PIP2, ADP-Glo
measured attribute: IC50 (nM)

| structure as smiles | IC50 / nM |
| --- | --- |
| CNS(=O)(=O)c1cc(-c2sc(Nc3cccc(N4CCN(CCO)CC4=O)n3)nc2C)cc2c1C(=O)N([C@@H](C)C1CC1)C2 | 0.7 |
| CNS(=O)(=O)c1cc(-c2sc(Nc3cccc(N4CCNCCC4=O)n3)nc2C)cc2c1C(=O)N([C@@H](C)C1CC1)C2 | 0.7 |
| CNS(=O)(=O)c1cc(-c2sc(Nc3cccc(N4CCOCC4=O)n3)nc2C)cc2c1C(=O)N([C@@H](C)C1CC1)C2 | 0.7 |

I = CNS(=O)(=O)c1cc(-c2sc(Nc3cccc(N4C[C@H](C)NCC4=O)n3)nc2C)cc2c1C(=O)N([C@@H](C)C1CC1)C2
II = CNS(=O)(=O)c1cc(-c2sc(Nc3cccc(N4CCN(C)CC4=O)n3)nc2C)cc2c1C(=O)N([C@@H](C)C1CC1)C2
III = CCN(C(=O)COC)c1cccc(Nc2nc(C)c(-c3cc4c(c(S(=O)(=O)NC)c3)C(=O)N([C@@H](C)C3CC3)C4)s2)n1
Query: Please list the entries, largest IC50 first. List the labels according to the requested ordering.
Reply: II, I, III

---

system name: recombinant human PI3Kδ (6-His(p110-p85α)) (Homo sapiens (Human))
measurement protocol: Enzymatic activity assay for recombinant human PI3Kδ (ADP-Glo)
measurement parameters: 0.6 nM PI3Kδ, 20 μM ATP, 80 μM DiC8-PIP2, ADP-Glo
pIC50: −log10 of the molar value.
measured attribute: pIC50

1 = CC(=O)N(C)c1cccc(Nc2nc(C)c(-c3cc4c(c(S(C)(=O)=O)c3)C(=O)N([C@@H](C)C3CC3)C4)s2)n1
2 = Cc1nc(Nc2cccc(N3CCNC3=O)n2)sc1-c1cc2c(c(S(=O)(=O)NC(C)C)c1)C(=O)N([C@@H](C)C(F)(F)F)C2
Query: Between 1 and 2 , which one shows the smaller pIC50 number? Pick one and reply with its label.
Reply: 1

---

system name: recombinant human PI3Kβ (6-His(p110-p85α)) (Homo sapiens (Human))
Sequence (P42338 whole entry): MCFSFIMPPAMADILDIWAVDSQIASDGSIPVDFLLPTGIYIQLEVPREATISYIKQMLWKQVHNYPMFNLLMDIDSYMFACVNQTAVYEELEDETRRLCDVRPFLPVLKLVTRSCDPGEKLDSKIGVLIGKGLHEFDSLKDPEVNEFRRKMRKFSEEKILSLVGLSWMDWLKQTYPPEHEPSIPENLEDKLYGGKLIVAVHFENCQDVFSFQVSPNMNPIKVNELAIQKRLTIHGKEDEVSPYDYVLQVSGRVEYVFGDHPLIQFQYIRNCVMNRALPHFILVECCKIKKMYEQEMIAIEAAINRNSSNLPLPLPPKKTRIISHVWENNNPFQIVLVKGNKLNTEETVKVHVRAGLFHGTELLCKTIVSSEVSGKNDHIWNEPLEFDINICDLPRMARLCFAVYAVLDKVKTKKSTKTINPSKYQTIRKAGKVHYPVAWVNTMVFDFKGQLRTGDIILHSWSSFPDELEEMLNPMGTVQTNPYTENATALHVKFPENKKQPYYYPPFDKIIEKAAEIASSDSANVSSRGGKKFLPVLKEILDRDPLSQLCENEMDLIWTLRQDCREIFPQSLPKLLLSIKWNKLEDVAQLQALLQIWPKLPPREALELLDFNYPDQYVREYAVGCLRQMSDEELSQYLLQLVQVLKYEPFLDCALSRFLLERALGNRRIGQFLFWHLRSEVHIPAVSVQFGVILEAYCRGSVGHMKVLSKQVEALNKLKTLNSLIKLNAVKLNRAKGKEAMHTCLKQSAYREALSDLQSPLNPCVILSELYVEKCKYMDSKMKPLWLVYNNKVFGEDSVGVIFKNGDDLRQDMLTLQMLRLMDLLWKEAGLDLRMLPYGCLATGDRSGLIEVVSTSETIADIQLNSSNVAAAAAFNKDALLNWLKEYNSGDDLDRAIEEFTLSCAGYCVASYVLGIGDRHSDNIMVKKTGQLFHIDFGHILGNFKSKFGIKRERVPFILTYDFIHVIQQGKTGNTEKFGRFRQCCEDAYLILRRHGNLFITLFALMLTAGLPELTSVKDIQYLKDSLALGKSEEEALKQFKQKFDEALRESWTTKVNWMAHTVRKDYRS
Sequence (P27986 whole entry partner): as the sequence (P27986 whole entry partner) above
measurement protocol: Enzymatic activity assay for recombinant human PI3Kβ (ADP-Glo)
Format: biochemical
measurement parameters: 1.2 nM PI3Kβ, 20 μM ATP, 80 μM DiC8-PIP2, ADP-Glo
pIC50: −log10 of the molar value.
measured attribute: pIC50

Some entries whose results are on file:
| structure as smiles | pIC50 |
| --- | --- |
| CCN(C(=O)COC)c1cccc(Nc2nc(C)c(-c3cc4c(c(S(=O)(=O)NC)c3)C(=O)N([C@@H](C)C3CC3)C4)s2)n1 | 6.64 |
| CNS(=O)(=O)c1cc(-c2sc(Nc3cccc(N4C[C@H](O)CC4=O)n3)nc2C)cc2c1C(=O)N([C@@H](C)C1CC1)C2 | 6.41 |
| CNS(=O)(=O)c1cc(-c2sc(Nc3cccc(N4CC(C)(C)NCC4=O)n3)nc2C)cc2c1C(=O)N([C@@H](C)C1CC1)C2 | 6.70 |

1 = Cc1nc(Nc2cccc(N3CCNC3=O)n2)sc1-c1cc2c(c(S(C)(=O)=O)c1)C(=O)N([C@@H](C)C1CC1)C2
2 = Cc1nc(Nc2cccc(N3CCCOC3=O)n2)sc1-c1cc2c(c(S(=O)(=O)NC3COC3)c1)C(=O)N([C@@H](C)C1CC1)C2
Query: Returns: the label, 1 or 2 , whose recorded pIC50 is the lower number. Record your answer as the label of the chosen record.
Reply: 2

Source: patent US10961236B2
